Procedure Details: Intrinsic dissolution rate from miniaturized discs (DIDR), μDiss Profiler
Format: physicochemical
Assay Context: disc (D), FaSSIF-V1 pH 6.5, 37 °C, 100 rpm, mean ± SD
Experimental: Dissolution experiments were carried out in a small-scale dissolution apparatus using in situ fiber optic probes to measure the amount of drug dissolved over time by UV absorbance (μDiss Profiler, Pion Inc., Billerica, MA, USA). […] The hydrodynamic diameter of the micelles/vesicles formed in the biorelevant media were measured by DLS (Table 2). […] Stirring was turned off while measuring the UV absorbance for each aliquot and the standard curve was established based on six aliquots. […]
Parameter Measured: IDRFaSSIF-V1

Given the entry CC(C)(Oc1ccc(C(=O)c2ccc(Cl)cc2)cc1)C(=O)O [Fenofibric acid] , report its measured IDRFaSSIF-V1.
227 ± 33 μg/min/cm^2

And the next one, COc1ccc2cc([C@H](C)C(=O)O)ccc2c1 [Naproxen] ?
144 ± 12 μg/min/cm^2

And the next one, C#C[C@]1(O)CC[C@H]2[C@@H]3CCc4cc(O)ccc4[C@H]3CC[C@@]21C [Ethinylestradiol] ?
3.2 ±0.1 μg/min/cm^2

And the next one, COc1ccc2c(c1)c(CC(=O)O)c(C)n2C(=O)c1ccc(Cl)cc1 [Indomethacin] ?
31 ± 1.3 μg/min/cm^2

###

Procedure Details: Intrinsic dissolution rate from controlled suspensions (SIDR), μDiss Profiler
Format: physicochemical
Assay Context: suspension (S), FaSSIF-V2 pH 6.5, 37 °C, 100 rpm, mean ± SD
Parameter Measured: IDRFaSSIF-V2 (μg/min/cm^2)
Entry rule: numbers only, all in μg/min/cm^2.

Given the entry COc1ccc2c(c1OC)C(=O)O[C@@H]2[C@H]1c2c(cc3c(c2OC)OCO3)CCN1C , report its measured IDRFaSSIF-V2.
1.2

And the next one, Cc1cccc(Nc2ccccc2C(=O)O)c1C ?
11.9

And the next one, CCOC(=O)C1=C(C)NC(C)=C(C(=O)OC)C1c1cccc(Cl)c1Cl (centres unmarked) ?
0.6

And the next one, CC(C)OC(=O)C(C)(C)Oc1ccc(C(=O)c2ccc(Cl)cc2)cc1 [Fenofibrate] ?
0.05

And the next one, Cc1c(Cl)cccc1Nc1ccccc1C(=O)O ?
12.9
